All figures here come from ChEMBL document CHEMBL1128597.

Assay: Tested for pharmacokinetic parameter in fasted Beagle dogs (Half-life) iv administration.
Type: ADME, organism-based, Canis lupus familiaris
Details: dog, in vivo
Metric Name: half-life (h)

A: Cc1cc(CCCOc2c(C)cc(-c3noc(C(F)(F)F)n3)cc2C)on1 [PLECONARIL]
B: Cc1cc(CCCCCOc2c(Cl)cc(C3=NCCO3)cc2Cl)on1 [WIN-54954]
query: Which is greater in half-life, the first item A or the second item B ? Indicate which entry you chose by stating its label.
result: A
(A: 27 h, B: 7 h)

----------
Assay: Tested for pharmacokinetic parameter in fasted Beagle dogs (Clearance value of the compound) iv administration.
Assay type: ADME, organism-based, Canis lupus familiaris
Settings: dog, in vivo
Metric Name: clearance (L/h/kg)

a: Cc1cc(CCCOc2c(C)cc(-c3noc(C(F)(F)F)n3)cc2C)on1
b: Cc1cc(CCCCCOc2c(Cl)cc(C3=NCCO3)cc2Cl)on1
query: Which entry shows the lesser value of clearance here, a or b ? Indicate which entry you chose by stating its label.
result: a
(a: 0.77 L/h/kg, b: 1.91 L/h/kg)
